# Procedure details: Human HepG2 cell viability assay in 384 well format
# Type: toxicity, cell-based
# Set-up: dose 125 nL, time 70.5 hour; concentration not given beside the values
# Condition summary: HepG2 cells, read-out: Inhibition
Each entry below carries its recorded cytotoxicity at 70.5 h.
Field format: number, assumed %, no unit text.

Field: example entries. Status: answers known.
CC(C(=O)NCc1ccnc(N(C)C)c1)n1cncn1 (stereo not drawn)    -10.2
O=c1ccc(-c2cccs2)nn1CN1CCc2ccccc2C1    -23.7
CC(=O)NC1CCCN(C(=O)Nc2nnc(C(C)C)s2)C1 (stereo not drawn)    0.76
COc1ccc(-c2ncccc2C(=O)N2C[C@H]3CC[C@@H]2C3)cn1    -2.51
Cc1ccc(NC(=O)NCCn2cnc(C)c(C)c2=O)cc1F    -1.25
COc1cccc(CN2CCCC3(CCN(C(=O)c4ccco4)C3)C2)c1 (stereo not drawn)    -8.94
CSCc1cccc(S(=O)(=O)N2CCCC2)c1    -6.64
Cc1cn[nH]c1C1COCCN1S(=O)(=O)c1cn[nH]c1 (stereo not drawn)    -0.517

Pending molecule:
Q: What does the record list as cytotoxicity at 70.5 h for c1cnn(CCCO[C@@H]2CC[C@H]3[C@H]2OCCN3CC2CC2)c1 ?
Result: -7.2

---

Below, each entry is listed alongside its reported cytotoxicity at 70.5 h.
# Procedure details: Human HepG2 cell viability assay in 384 well format
# Type: toxicity, cell-based
# Parameters: dose 125 nL, time 70.5 hour; concentration not given beside the values
# Condition summary: HepG2 cells, read-out: Inhibition
Express the result in % but write the number alone.

COc1ccc(OCc2noc(CN(C)C3CCS(=O)(=O)C3)n2)cc1 (stereo unspecified)    -5.76
COc1ccc(CCC(=O)Nc2ccc3ncn(C)c(=O)c3c2)cc1    -2.91
CC[C@@]1(O)CCN(C(=O)c2ccc(CN3CCCCCC3)cc2)C[C@H]1O    -3.75
CN(C)S(=O)(=O)N1CCC2(CC1)CC(Oc1ccccn1)CO2 (stereo unspecified)    0.296
CCn1nc2c(cc1=O)CN(Cc1cc(C)on1)CC2    -3.67
Cc1ccc(CNC(=O)C2=NOC3(CCCNC3)C2)cc1 (stereo unspecified)    -13.2
CCc1c(C)nc2ccccc2c1N1CCC(C(=O)NC)CC1    -5.91
CC(C)c1nc2c(n1C)CCN(Cc1nc(-c3ccsc3)no1)C2    -9.76

Q: Return reported cytotoxicity at 70.5 h; argument: COc1ccc(CN2C[C@@H]3OCCN(C)[C@@H]3C2)cc1
Result: -4.77

Q: So what does the record say about cytotoxicity at 70.5 h for CS(=O)(=O)NC[C@H]1OC[C@@H]2CCN(C(=O)c3cccnc3)C[C@@H]21 ?
Result: -0.643

Q: I am curious: what cytotoxicity at 70.5 h value has been reported for CCc1cnc(C)nc1N1CCN(C(N)=O)CC1 ?
Result: -12.6

---

# Procedure details: Human HepG2 cell viability assay in 384 well format
# Format: toxicity, cell-based
# Parameters: dose 125 nL, time 70.5 hour; concentration not given beside the values
# Condition summary: HepG2 cells, read-out: Inhibition
Measured metric: cytotoxicity at 70.5 h (%)
State just the number; it will be interpreted in %.

Q: Need cytotoxicity at 70.5 h, item CC(C)N(CCNC(=O)c1ccc(S(=O)(=O)NC2CC2)cc1)C(C)C
Result: 25.6

Q: Sample c1cncc(COC[C@H]2CC[C@H]3[C@H](CCN3Cc3cccs3)O2)c1 — what was its cytotoxicity at 70.5 h?
Result: 2.81

Q: What measured cytotoxicity at 70.5 h goes with N#Cc1ncn(CCS(=O)(=O)c2ccc(Cl)cc2)n1 ?
Result: 2.53

Q: So what's the measured cytotoxicity at 70.5 h for this one? Cn1c(C(=O)N(CC(N)=O)C2CCCC2)cc(Cl)c1Cl
Result: -10.6

Q: Please look up its cytotoxicity at 70.5 h: CC1(C)CN(C(CNC2=NCCN2)c2ccc(Cl)cc2)CCO1 (centres undefined)
Result: -5.1

Q: Requested field: cytotoxicity at 70.5 h. Item: Oc1cc(-c2ccsc2)nc(C2CCN(Cc3ccncc3)CC2)n1
Result: -3.71

Q: Request the reported cytotoxicity at 70.5 h associated with CCN(CC)S(=O)(=O)N1CCC(c2c(C(N)=O)sc3ccccc23)C1 (centres undefined)
Result: -3.04

Q: Given the molecule CCC(CO)N(Cc1ccsc1)Cc1c(C)nn(C)c1Cl (centres undefined) , what is its reported cytotoxicity at 70.5 h?
Result: -5.33

Q: Recorded cytotoxicity at 70.5 h for CC(C)NC(=O)CC1COC2(CCN(Cc3ccco3)CC2)C1 (centres undefined) , please?
Result: 18

Q: Please look up its cytotoxicity at 70.5 h: CN(C)CCNc1cc(-c2ncccc2O)c2cc[nH]c2n1
Result: -7.75

Q: For the molecule Cc1cc(F)ccc1S(=O)(=O)NCc1[nH]ncc1Br , what cytotoxicity at 70.5 h is on record?
Result: -7.73

Q: If you can, please state the reported cytotoxicity at 70.5 h value of COCc1cc(N(C)Cc2c(C)nn(C)c2C)n2nccc2n1 .
Result: 64.9

Q: Consider the molecule CCS(=O)(=O)N1CCC2(CCCC(=O)N2C)CC1 and give its measured cytotoxicity at 70.5 h.
Result: -11

Q: Entry CCN(CC)c1nc(Nc2cccc(C(C)O)c2)nc2ccccc12 (centres undefined) : reported cytotoxicity at 70.5 h = ?
Result: 65

Q: Requested field: cytotoxicity at 70.5 h. Item: Cc1ccc(S(=O)(=O)N2CCN(CCC(N)=O)CC2)s1
Result: -7.66

Q: I'd like to know its cytotoxicity at 70.5 h. The molecule in question is Cc1cc(C(=O)N2CCCC2c2nc(C)cc(O)n2)on1 (centres undefined)
Result: -8.09

Q: Would you kindly share the measured cytotoxicity at 70.5 h for CCc1nnc(CN(C)Cc2cccc(C(=O)Nc3cnn(C)c3)c2)o1 ?
Result: 3.92

Q: Which cytotoxicity at 70.5 h reading was recorded for the molecule CC(NCc1cnc(N2CCOCC2)s1)c1ccc(Cl)s1 (centres undefined) ?
Result: -7.8

Q: // cytotoxicity at 70.5 h lookup, key: O=C1CC(c2ccsc2)c2cnn(C3CCCC3)c2N1 (centres undefined)
Result: -9.93

meta.source: ChEMBL document CHEMBL3507680
